# assay: Dissociation constant, pKa of the compound in Krebs-Henseleit buffer
# Type: physicochemical
experimental-readout: pKa

Please review the entries below; each comes with its answer.
CCOP(=O)(OCC)C(NCCCCCCCCCCCC[P+](c1ccccc1)(c1ccccc1)c1ccccc1)C(C)C.[Br-] (racemic)
6.38
CCOP(=O)(OCC)C(C)(C)NCCCCCC[P+](c1ccccc1)(c1ccccc1)c1ccccc1.[Br-]
6.53
CCCNC(C)(C)P(=O)(OCC)OCC
6.99
CCOP(=O)(OCC)C(NCCCC[P+](c1ccccc1)(c1ccccc1)c1ccccc1)C(C)C.[Br-] (racemic)
5.47
CCOP(=O)(OCC)C(NCCCCCCCC[P+](c1ccccc1)(c1ccccc1)c1ccccc1)C(C)C.[Br-] (racemic)
6.23
CCOP(=O)(OCC)C(C)(CCC[P+](c1ccccc1)(c1ccccc1)c1ccccc1)NCC(C)C.[Br-] (racemic)
5.39
CCOP(=O)(OCC)C(NCCCCCC[P+](c1ccccc1)(c1ccccc1)c1ccccc1)C(C)(C)C.[Br-] (racemic)
5.63

As a next step, examine the molecule that follows.
Give pKa for CCOP(=O)(OCC)C1(C)CCCN1 (stereo not drawn)
7.01
